read-out: CYP2C9 (gene 1559); assay: LTEA_HepaRG_CYP2C9: Life Technologies and Expression Analysis (LTEA) Assay for CYP2C9 using HepaRG (AID 2283484); details: mRNA level, 48 h; actives raise or lower the signal
Active and inactive are the calls of the source. The calls were made as follows: active = hit-call score of the fitted dose curve at least 0.9, where 1 is the maximum; inactive = score below 0.9.
Return exactly one item of y for active, n for inactive

| COMPOUND | DISCRETE LABEL |
| --- | --- |
| CCCOc1ccc(S(=O)(=O)N2CCN(CC)CC2)cc1-c1nc2c(CC)n(Cc3ccccn3)nc2c(=O)[nH]1 | n |

Exercise: Dear colleague, could you share the recorded outcome for CCOC(N)=O when you have a moment?
Solution: n

Exercise: Request: Cn1cc[nH]c1=S
Solution: n

Ref: PubChem BioAssay (EPA / NIEHS)
